biological target: telomerase (Homo sapiens); construct: preferably a cellular extract or other preparation containing telomerase; endogenous in cells; test: Inhibition of telomerase activity (IC50); settings: approximate values (Table 2)
measure-name: IC50 (µM)

{"columns": ["substance-smiles", "qualifier-sign", "data-value"],
 "data": [
  ["Cc1cc(CSc2nc(C=O)ccc2C#N)c(C)cc1CSc1nc(C=O)ccc1C#N", "=", 7],
  ["N#Cc1ccc(C=O)nc1SCc1cc(Cl)c(CSc2nc(C=O)ccc2C#N)cc1Cl", "<", 3.2],
  ["N#Cc1ccc(C=O)nc1SCc1c(Cl)c(Cl)c(CSc2nc(C=O)ccc2C#N)c(Cl)c1Cl", "<", 3.2],
  ["N#Cc1ccc(C=O)nc1SCc1ccc(Cl)c(Cl)c1", "=", 4.5]
]}

* * *

Reported pIC50 values follow for various molecules
molecular target: telomerase (Homo sapiens); construct: preferably a cellular extract or other preparation containing telomerase; endogenous in cells; experiment: Inhibition of telomerase activity (IC50); conditions: approximate values (Table 2)
pIC50: −log10 of the molar value.
measure-name: pIC50

{"columns": ["substance-smiles", "qualifier-sign", "data-value"],
 "data": [
  ["Cc1cc(C)c(CSc2nc(C=O)ccc2C#N)c(C)c1CSc1nc(C=O)ccc1C#N", ">", 5.49],
  ["Cc1c(C)c(CSc2nc(C=O)ccc2C#N)c(C)c(CSc2nc(C=O)ccc2C#N)c1C", "=", 5.40],
  ["N#Cc1ccc(C=O)nc1SCc1ccccc1-c1ccccc1CSc1nc(C=O)ccc1C#N", ">", 5.49],
  ["N#Cc1ccc(C=O)nc1SCC=CCSc1nc(C=O)ccc1C#N", "=", 5.00],
  ["CC1(C)CCC(C)(C)c2cc(CSc3nc(C=O)ccc3C#N)ccc21", "=", 5.10]
]}

* * *

target: telomerase (Homo sapiens); construct: preferably a cellular extract or other preparation containing telomerase; endogenous in cells; test: Inhibition of telomerase activity (IC50); conditions: approximate values (Table 2)
pIC50: −log10 of the molar value.

{"columns": ["compound", "system-name", "qualifier-sign", "pIC50"],
 "data": [
  ["Cc1c(C)c(C)c(CSc2nc(C=O)ccc2C#N)c(C)c1C [III]", "telomerase (Homo sapiens)", "=", 5.05],
  ["Cc1cc(C)c(CSc2nc(C=O)ccc2C#N)cc1CSc1nc(C=O)ccc1C#N [Compound XV]", "telomerase (Homo sapiens)", ">", 5.49],
  ["N#Cc1ccc(C=O)nc1SCc1ccc(CSc2nc(C=O)ccc2C#N)c(CSc2nc(C=O)ccc2C#N)c1CSc1nc(C=O)ccc1C#N [XXXII]", "telomerase (Homo sapiens)", ">", 5.49],
  ["N#Cc1ccc(C=O)nc1OCc1ccc(Cl)c(Cl)c1 [Compound XIII]", "telomerase (Homo sapiens)", "=", 4.89]
]}

* * *

system: IMR-90; test: XTT assay for cytotoxicity; type: cell-based; details: Homo sapiens, 72 hours, 3 μM to 1,000 μM, read-out: LD50 (the source's name)

{"columns": ["substance-smiles", "system-name", "IC50"],
 "data": [
  ["N#Cc1ccc(C=O)nc1SCc1ccc(Cl)c(Cl)c1", "IMR-90", "5 µM"]
]}

* * *

Reported pIC50 values follow for various molecules
target: telomerase (Homo sapiens, UniProt O14746); construct: preferably a cellular extract or other preparation containing telomerase; endogenous in cells; assay: Inhibition of telomerase activity (IC50); settings: approximate values (Table 2)
Sequence (O14746 whole entry): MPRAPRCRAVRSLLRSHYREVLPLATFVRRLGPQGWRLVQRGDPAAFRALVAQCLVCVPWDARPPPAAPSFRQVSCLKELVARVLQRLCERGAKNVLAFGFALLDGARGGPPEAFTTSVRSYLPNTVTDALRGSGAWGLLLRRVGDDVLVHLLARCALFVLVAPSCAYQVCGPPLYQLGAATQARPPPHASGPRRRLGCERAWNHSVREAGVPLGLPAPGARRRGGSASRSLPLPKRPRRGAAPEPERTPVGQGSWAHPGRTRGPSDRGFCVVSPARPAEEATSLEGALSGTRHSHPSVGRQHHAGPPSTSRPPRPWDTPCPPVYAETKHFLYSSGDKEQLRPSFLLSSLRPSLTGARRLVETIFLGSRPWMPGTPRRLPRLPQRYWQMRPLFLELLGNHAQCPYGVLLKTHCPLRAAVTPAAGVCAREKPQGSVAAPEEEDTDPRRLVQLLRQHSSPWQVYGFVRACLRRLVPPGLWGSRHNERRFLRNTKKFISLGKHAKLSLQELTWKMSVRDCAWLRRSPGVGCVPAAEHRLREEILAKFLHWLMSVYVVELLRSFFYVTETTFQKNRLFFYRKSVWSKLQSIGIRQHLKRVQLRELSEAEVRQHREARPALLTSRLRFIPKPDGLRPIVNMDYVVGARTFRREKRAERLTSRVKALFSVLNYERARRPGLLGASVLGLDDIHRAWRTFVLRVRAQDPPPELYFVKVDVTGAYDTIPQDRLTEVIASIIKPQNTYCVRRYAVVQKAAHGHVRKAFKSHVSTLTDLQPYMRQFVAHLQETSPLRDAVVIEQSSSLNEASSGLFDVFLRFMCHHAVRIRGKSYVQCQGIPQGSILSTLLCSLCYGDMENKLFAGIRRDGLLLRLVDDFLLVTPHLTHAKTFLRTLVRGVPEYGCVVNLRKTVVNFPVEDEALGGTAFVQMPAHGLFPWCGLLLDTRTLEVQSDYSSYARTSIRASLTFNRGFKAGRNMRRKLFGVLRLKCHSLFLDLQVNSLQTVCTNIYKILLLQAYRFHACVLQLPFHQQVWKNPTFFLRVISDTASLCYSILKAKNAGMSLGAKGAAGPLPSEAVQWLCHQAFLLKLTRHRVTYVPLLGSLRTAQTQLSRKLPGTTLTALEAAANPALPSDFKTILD
pIC50: −log10 of the molar value.
measure-name: pIC50

{"columns": ["molecule", "measure-name", "qualifier-sign", "data-value"],
 "data": [
  ["N#Cc1ccc(C=O)nc1SCc1ccc(Cl)s1 [Compound IX]", "pIC50", "=", 5.30],
  ["N#Cc1ccc(C=O)nc1SCc1ccc(CSc2nc(C=O)ccc2C#N)cc1 [Compound XIX]", "pIC50", "=", 5.30],
  ["N#Cc1ccc(C=O)nc1SCc1cc(CSc2nc(C=O)ccc2C#N)c(CSc2nc(C=O)ccc2C#N)cc1CSc1nc(C=O)ccc1C#N [XXXIII]", "pIC50", ">", 5.49],
  ["Cc1c(C)c(C)c(CSc2nc(C=O)ccc2C#N)c(CSc2nc(C=O)ccc2C#N)c1C [Compound XX]", "pIC50", ">", 5.49],
  ["N#Cc1ccc(C=O)nc1SCc1cc(Br)ccc1-c1ccc(Br)cc1CSc1nc(C=O)ccc1C#N [Compound XXV]", "pIC50", ">", 5.49],
  ["N#Cc1ccc(C=O)nc1SCc1ccccc1CSc1nc(C=O)ccc1C#N [Compound XVIII]", "pIC50", "=", 5.22],
  ["N#Cc1ccc(C=O)nc1SCc1ccc2ccccc2c1CSc1nc(C=O)ccc1C#N [Compound XXX]", "pIC50", "=", 5.15],
  ["N#Cc1ccc(C=O)nc1SCC(=O)c1ccc(Cl)cc1 [Compound XII]", "pIC50", "=", 4.82]
]}

* * *

Reported pIC50 values follow for various compounds
biological target: telomerase (Homo sapiens, UniProt O14746); construct: preferably a cellular extract or other preparation containing telomerase; endogenous in cells; experiment: Inhibition of telomerase activity (IC50); details: approximate values (Table 2)
pIC50: −log10 of the molar value.

{"columns": ["compound", "qualifier-sign", "pIC50"],
 "data": [
  ["N#Cc1ccc(C=O)nc1SCC(=O)c1ccc(Cl)c(Cl)c1 [Compound X]", "=", 4.96],
  ["N#Cc1ccc(C=O)nc1SCC(=O)c1ccc(Cl)cc1Cl [Compound XI]", "=", 4.57],
  ["CCc1c(CSc2nc(C=O)ccc2C#N)ccc2c1C(C)(C)CCC2(C)C [VIII]", "=", 4.68],
  ["Cc1c(CSc2nc(C=O)ccc2C#N)c(C)c(CSc2nc(C=O)ccc2C#N)c(C)c1CSc1nc(C=O)ccc1C#N [Compound XXXI]", ">", 5.49],
  ["N#Cc1ccc(C=O)nc1SCc1cc2ccccc2cc1CSc1nc(C=O)ccc1C#N [Compound XXVI]", "=", 5.22]
]}

* * *

biological target: telomerase (Homo sapiens); construct: preferably a cellular extract or other preparation containing telomerase; endogenous in cells; assay: Inhibition of telomerase activity (IC50); conditions: approximate values (Table 2)

{"columns": ["substance-smiles", "qualifier-sign", "IC50, µM"],
 "data": [
  ["N#Cc1ccc(C=O)nc1SCc1c2ccccc2c(CSc2nc(C=O)ccc2C#N)c2ccccc12", "=", 7],
  ["N#Cc1ccc(C=O)nc1SCCCCSc1nc(C=O)ccc1C#N", "=", 7],
  ["N#Cc1ccc(C=O)nc1SCc1ccc(C(F)(F)F)cc1", "=", 18],
  ["N#Cc1ccc(C=O)nc1SCc1cccc2cccc(CSc3nc(C=O)ccc3C#N)c12", "<", 3.2],
  ["N#Cc1ccc(C=O)nc1SCC#CCSc1nc(C=O)ccc1C#N", "=", 5],
  ["N#Cc1ccc(C=O)nc1SCc1cccc(CSc2nc(C=O)ccc2C#N)c1", "<", 3.2],
  ["N#Cc1ccc(C=O)nc1SCc1c(Cl)cccc1Cl", "=", 7]
]}

Values from patent US5770613A
